biological target: METTL3/METTL14 (Homo sapiens, UniProt Q86U44); assay: METTL3-14 standard enzyme assay (3H-SAM flashplate); details: Table 3; METTL3 biochemical assay
Sequence (Q86U44 whole entry, species assumed): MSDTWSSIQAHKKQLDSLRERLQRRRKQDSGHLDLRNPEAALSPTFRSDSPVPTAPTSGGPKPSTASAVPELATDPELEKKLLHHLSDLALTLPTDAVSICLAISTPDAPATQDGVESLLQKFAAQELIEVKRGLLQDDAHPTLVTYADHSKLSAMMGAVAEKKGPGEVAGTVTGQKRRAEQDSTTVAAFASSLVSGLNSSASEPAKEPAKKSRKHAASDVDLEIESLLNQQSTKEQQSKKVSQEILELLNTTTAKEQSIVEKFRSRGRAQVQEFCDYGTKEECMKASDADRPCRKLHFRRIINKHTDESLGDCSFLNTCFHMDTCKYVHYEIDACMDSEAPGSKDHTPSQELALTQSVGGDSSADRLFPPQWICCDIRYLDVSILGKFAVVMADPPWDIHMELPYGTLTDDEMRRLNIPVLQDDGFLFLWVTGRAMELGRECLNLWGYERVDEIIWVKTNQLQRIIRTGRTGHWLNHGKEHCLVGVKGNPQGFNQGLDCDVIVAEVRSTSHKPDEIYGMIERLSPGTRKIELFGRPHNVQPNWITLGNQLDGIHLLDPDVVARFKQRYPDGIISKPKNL
Sequence (Q9HCE5 whole entry partner, species assumed): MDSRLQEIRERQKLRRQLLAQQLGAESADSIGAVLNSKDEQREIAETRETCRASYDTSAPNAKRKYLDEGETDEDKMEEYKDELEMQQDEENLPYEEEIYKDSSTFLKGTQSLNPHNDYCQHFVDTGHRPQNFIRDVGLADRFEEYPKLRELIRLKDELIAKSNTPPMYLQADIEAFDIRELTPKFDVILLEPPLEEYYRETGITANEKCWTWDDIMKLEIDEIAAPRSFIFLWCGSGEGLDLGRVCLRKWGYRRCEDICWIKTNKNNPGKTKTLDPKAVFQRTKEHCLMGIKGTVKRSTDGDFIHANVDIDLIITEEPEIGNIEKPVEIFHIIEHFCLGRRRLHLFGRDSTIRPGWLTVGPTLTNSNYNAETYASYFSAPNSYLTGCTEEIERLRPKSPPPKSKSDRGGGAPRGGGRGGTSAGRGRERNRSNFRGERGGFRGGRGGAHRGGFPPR
pIC50: −log10 of the molar value.
QUANTITY MEASURED: pIC50

SMILES STRING	pIC50
CNc1ccc2ccc(NC(=O)[C@H]3O[C@@H](n4cc(-c5ccn(C)n5)c5c(N)ncnc54)[C@H](O)[C@@H]3O)cc2n1	> 8.00
COCCCN(C(=O)[C@H]1O[C@@H](n2cc(-c3ccn(C)n3)c3c(N)ncnc32)[C@H](O)[C@@H]1O)C1CCNCC1	≤ 6.00
Cn1ccc(-c2cn([C@@H]3O[C@H](C(=O)NC4CCNCC4)[C@@H](O)[C@H]3O)c3ncnc(N)c23)n1	≤ 6.00
Cn1ccc(-c2cn([C@@H]3O[C@H](C(=O)N(CCCO)C4CCNCC4)[C@@H](O)[C@H]3O)c3ncnc(N)c23)n1	6.00 to 7.00

Batch of 8 compounds: report pIC50 for each.
1. COCCN(C(=O)[C@H]1O[C@@H](n2cc(-c3ccn(C)n3)c3c(N)ncnc32)[C@H](O)[C@@H]1O)c1ccc2ccc(N3CCC3)nc2c1
2. Nc1ncnc2c1c(-n1cccn1)cn2[C@@H]1C[C@H](C(=O)Nc2ccc3ccc(N4CCC4)nc3c2)[C@@H](O)C1
3. Cn1ccc(-c2cn([C@@H]3O[C@H](C(=O)NCC4CCC(F)(F)CC4)[C@@H](O)[C@H]3O)c3ncnc(N)c23)n1
4. COCCN(C(=O)[C@H]1O[C@@H](n2cc(-c3ccn(C)n3)c3c(N)ncnc32)[C@H](O)[C@@H]1O)C1CCNCC1
5. CN(C)CCNC(=O)[C@H]1O[C@@H](n2cc(-c3ccn(C)n3)c3c(N)ncnc32)[C@H](O)[C@@H]1O
6. Cn1ccc(-c2cn([C@@H]3O[C@H](C(=O)NCC4CCN(CCO)CC4)[C@@H](O)[C@H]3O)c3ncnc(N)c23)n1
7. CN1CCC(NC(=O)[C@H]2O[C@@H](n3ccc4c(N)ncnc43)[C@H](O)[C@@H]2O)CC1
8. Cn1ccc(-c2cn([C@@H]3O[C@H](C(=O)NCc4cnccn4)[C@@H](O)[C@H]3O)c3ncnc(N)c23)n1

6.00 to 7.00
7.00 to 8.00
6.00 to 7.00
≤ 6.00
≤ 6.00
6.00 to 7.00
≤ 6.00
6.00 to 7.00

Entry `Nc1ncnc2c1c(-n1cccn1)cn2[C@H]1C[C@H](O)[C@@H](C(=O)Nc2ccc3nc(NC4CCC4)[nH]c3c2)O1` has what pIC50? > 8.00
